Data provenance: ChEMBL document CHEMBL2046302

half-life overview
assay: Half life in human liver microsome; format: ADME; conditions: liver microsomes
observable: half-life

>  <compound>
N#Cc1cc(OC(F)(F)F)cc(-c2nc(-c3ccc4c(c3)cc3n4CCC3CC(=O)O)no2)c1 (single isomer, unassigned; enantiomer 2)

>  <endpoint-value>
> 1 h

$$$$
>  <compound>
N#Cc1cc(OC(F)(F)F)cc(-c2nc(-c3ccc4[nH]c5c(c4c3)CCC5CC(=O)O)no2)c1 (single isomer, unassigned)

>  <endpoint-value>
> 1 h

$$$$

====

experiment: Oral bioavailability in Sprague-Dawley rat at 3 mg/kg; type: ADME, organism-based; settings: in vivo

>  <molecule>
N#Cc1cc(OC(F)(F)F)cc(-c2nc(-c3ccc4c(c3)cc3n4CCC3CC(=O)O)no2)c1 (single isomer, unassigned; enantiomer 2)

>  <bioavailability, %>
100

$$$$
>  <molecule>
N#Cc1cc(OC(F)(F)F)cc(-c2nc(-c3ccc4[nH]c5c(c4c3)CCC5CC(=O)O)no2)c1 (single isomer, unassigned)

>  <bioavailability, %>
32.5

$$$$

====

Vd overview
assay: Volume of distribution at steady state in Sprague-Dawley rat at 2 mg/kg, iv and 3 mg/kg, po; type: ADME, organism-based; settings: in vivo, read-out: Vdss
observable: Vd (L/kg)

>  <compound>
N#Cc1cc(OC(F)(F)F)cc(-c2nc(-c3ccc4[nH]c5c(c4c3)CCC5CC(=O)O)no2)c1 (single isomer, unassigned)

>  <endpoint-value>
0.734

$$$$
>  <compound>
N#Cc1cc(OC(F)(F)F)cc(-c2nc(-c3ccc4c(c3)cc3n4CCC3CC(=O)O)no2)c1 (single isomer, unassigned; enantiomer 2)

>  <endpoint-value>
0.234

$$$$

====

target: UniProt:P48303; test: Agonist activity against rat S1P1 assessed as accumulation of cAMP by HTRF assay
Sequence (P48303 whole entry): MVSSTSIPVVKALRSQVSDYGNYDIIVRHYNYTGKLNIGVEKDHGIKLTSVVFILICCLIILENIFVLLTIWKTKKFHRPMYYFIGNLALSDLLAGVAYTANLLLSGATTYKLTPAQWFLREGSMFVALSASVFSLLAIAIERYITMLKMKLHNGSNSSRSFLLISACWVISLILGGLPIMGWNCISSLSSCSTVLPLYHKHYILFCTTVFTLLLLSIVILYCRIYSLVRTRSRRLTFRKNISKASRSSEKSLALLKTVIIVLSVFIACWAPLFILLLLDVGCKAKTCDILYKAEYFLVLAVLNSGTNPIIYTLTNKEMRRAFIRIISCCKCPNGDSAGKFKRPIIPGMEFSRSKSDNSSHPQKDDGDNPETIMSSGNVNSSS
pEC50: −log10 of the molar value.
pEC50 overview

>  <compound>
N#Cc1cc(OC(F)(F)F)cc(-c2nc(-c3ccc4c(c3)cc3n4CCC3CC(=O)O)no2)c1 (single isomer, unassigned; enantiomer 2)

>  <pEC50>
10.00

$$$$
>  <compound>
N#Cc1cc(OC(F)(F)F)cc(-c2nc(-c3ccc4[nH]c5c(c4c3)CCC5CC(=O)O)no2)c1 (stereo in doubt; 17a)

>  <pEC50>
8.85

$$$$
>  <compound>
N#Cc1cc(OC(F)(F)F)cc(-c2nc(-c3ccc4c(c3)cc3n4CCC3CC(=O)O)no2)c1 (stereo in doubt; 23a)

>  <pEC50>
8.47

$$$$
>  <compound>
N#Cc1cc(OC(F)(F)F)cc(-c2nc(-c3ccc4[nH]c5c(c4c3)CCC5CC(=O)O)no2)c1 (single isomer, unassigned)

>  <pEC50>
8.74

$$$$

====

biological target: Sphingosine 1-phosphate receptor 1 (Homo sapiens, UniProt P21453); test: Agonist activity against human S1P1 assessed as accumulation of cAMP by HTRF assay; type: functional
Sequence (P21453 whole entry): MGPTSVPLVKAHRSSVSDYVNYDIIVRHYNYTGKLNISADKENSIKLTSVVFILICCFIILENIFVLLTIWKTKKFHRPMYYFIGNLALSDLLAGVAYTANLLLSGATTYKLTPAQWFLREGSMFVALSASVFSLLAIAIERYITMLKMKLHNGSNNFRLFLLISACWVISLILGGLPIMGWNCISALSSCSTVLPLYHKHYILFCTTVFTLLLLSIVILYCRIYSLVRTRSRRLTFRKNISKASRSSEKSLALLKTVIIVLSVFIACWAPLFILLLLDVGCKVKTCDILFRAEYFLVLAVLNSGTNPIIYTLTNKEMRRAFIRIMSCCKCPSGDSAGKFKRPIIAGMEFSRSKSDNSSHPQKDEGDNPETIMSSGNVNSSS
EC50 overview

>  <molecule>
N#Cc1cc(OC(F)(F)F)cc(-c2nc(-c3ccc4c(c3)cc3n4CCC3CC(=O)O)no2)c1 (stereo in doubt; 23a)

>  <output-unit>
nM

>  <EC50>
0.76

$$$$
>  <molecule>
COc1cc(C#N)cc(-c2nc(-c3ccc4[nH]c5c(c4c3)CCC5CC(=O)O)no2)c1 (racemic)

>  <output-unit>
nM

>  <EC50>
157

$$$$
>  <molecule>
N#Cc1cc(OC(F)(F)F)cc(-c2nc(-c3ccc4[nH]c5c(c4c3)CCC5CC(=O)O)no2)c1 (racemic)

>  <output-unit>
nM

>  <EC50>
1.1

$$$$
>  <molecule>
CC(C)Oc1ccc(-c2nc(-c3ccc4c(c3)cc3n4CCC3CC(=O)O)no2)cc1C#N (racemic)

>  <output-unit>
nM

>  <EC50>
0.61

$$$$
>  <molecule>
COc1ccc(-c2nc(-c3ccc4[nH]c5c(c4c3)CCC5CC(=O)O)no2)cc1C#N (racemic)

>  <output-unit>
nM

>  <EC50>
4.6

$$$$
>  <molecule>
CC(C)Oc1ccc(-c2nc(-c3ccc4[nH]c5c(c4c3)CCC5CC(=O)O)no2)cc1C#N (racemic)

>  <output-unit>
nM

>  <EC50>
7.5

$$$$
>  <molecule>
O=C(O)CC1CCn2c1cc1cc(-c3noc(-c4cc(C(F)(F)F)cc(C(F)(F)F)c4)n3)ccc12 (racemic)

>  <output-unit>
nM

>  <EC50>
2.1

$$$$
>  <molecule>
N#Cc1cc(OC(F)(F)F)cc(-c2nc(-c3ccc4[nH]c5c(c4c3)CCC5CC(=O)O)no2)c1 (stereo in doubt; 17a)

>  <output-unit>
nM

>  <EC50>
1.73

$$$$
